- target-entity: human IL-17A/F (human, UniProt Q16552 24-155; Q96PD4 31-163)
- Sequence (Q16552 24-155 limits assumed, chain 1 of 2): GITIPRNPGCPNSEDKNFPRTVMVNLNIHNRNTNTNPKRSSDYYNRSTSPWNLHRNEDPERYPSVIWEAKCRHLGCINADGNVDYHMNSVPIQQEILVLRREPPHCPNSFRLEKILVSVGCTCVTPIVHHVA
- Sequence (Q96PD4 31-163 limits assumed, chain 2 of 2): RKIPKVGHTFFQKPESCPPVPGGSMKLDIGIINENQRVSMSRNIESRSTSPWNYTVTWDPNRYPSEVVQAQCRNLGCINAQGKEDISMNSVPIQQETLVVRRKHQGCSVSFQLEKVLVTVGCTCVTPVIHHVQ
- method-summary: cell-based or functional assay
value-type: Potency (pM), IL-17-driven IL-6 production in HS27 cells

binder	display-unit	result-number
IL17-G9-1 (antibody, V domains shown) VH: EVQLLESGGGVVQPGRSLRLSCAASGFIFSNYGMHWVRQAPGKGLEWVAVISYDGSNKYYADSVKGRFTISRDNSKNTLYLEMNSLRPEDTAVYYCAKVGASGDYYYSYGLDVWGQGTTVTVSS VL: QSVLTQPPSASGTPGQTVSISCSGSHSNIGRHPVDWYQQVPGAAPKLLMYYGGYRPSGVPDRFSGSQSGTSASLAISGLQSEDEADYYCATWDDRLVGYVFGSGTKVTVLG	pM	99
IL17-B6-17 (antibody, V domains shown, also called pJP249 B6.1 #17VH / pJP252 B6.1 #17Vk) VH: EVQLVQSGAEVKKPGSSVKVSCKASGGSFGGYGIGWVRQAPGQGLEWMGGITPFFGFADYAQKFQGRVTITADESTTTAYMELSGLTSDDTAVYYCARDPNEFWNGYYSTHDFDSWGQGTTVTVSS VL: EIVLTQSPDFQSVTPKEKVTITCRASQDIGSELHWYQQKPDQPPKLLIKYASHSTSGVPSRFSGSGSGTDFTLTINGLEAEDAGTYYCHQTDSLPYTFGPGTKVDIK	pM	137
IL17-B6-11 (antibody, V domains shown) VH: EVQLVQSGAEVKKPGSSVKVSCKASGGSFLSYGFSWVRQAPGQGLEWMGGITPFFGFADYAQKFQGRVTITADESTTTAYMELSGLTSDDTAVYYCAREPNDFWNGYYTTHHFDYWGQGTTVTVSS VL: DVVMTQSPDFQSVTPKEKVTITCRASQNIGSALHWYQQKPDQSPKLLIKYASQSISGVPSRFSGSGSGTDFTLTINGLEAEDAGTYYCHQSTSLPHTFGQGTKLDIKR	pM	71
IL17-G9-2 (antibody, V domains shown) VH: EVQLLESGGGVVQPGRSLRLSCAASGFIFRNYGMHWVRQAPGKGLEWVAVISYDGSNKYYADSVKGRFTISRDNSKNTLYLEMNSLRPEDTAVYYCAKVGASGDYYYSYGLDVWGQGTTVTVSS VL: QSVLTQPPSASGTPGQTVSISCSGSNSNIGRHPVDWYQQVPGAAPKLLIYYDDQRPSGVPDRFSGSQSGTSASLAISGLQSEDEADYYCATWDDSLGGYVFGSGTKVTVLG	pM	147
